molecular target: EGFRvIII, full length, expressed by transfected cells (NR6 M, H1477, 300.19/EGFRvIII) (human, UniProt P00533 298-1210); experiment: cell-based or functional assay
readout: % internalization

Known results for binders:
| binder | % internalization |
| --- | --- |
| SC-EGFRvIII-XG1-211 (antibody, V domains shown, also called SC211; sc211) VH: QVQLVESGGGVVQPGRSLRLSCVASGFTLSSYGMHWVRQAPGKGLEWVAVTSYDGSKKDYADSAKGRFTISRDNSKNTLYLQMNSLRAEDTAVYYCVSEGYCSSSSCYKYYYYGMDVWGQGTTVTVSS VL: DIVMTQSPLSLPVTPGEPASISCRSSQSLLYRNGNNYLDWYLQRPGQSPQLLIYLGSNRASGVPDRFSGSGSGTDFTLKISRVEAEDVGVYYCMQALQTPRTFGQGTKVEIK | 21.6% |
| SC-EGFRvIII-XG2-170 (antibody, human IgG1, V domains shown, XenoMax-derived from an XMG2 mouse; also called SC170; sc170) VH: QVQLQQSGPGLVKPSQTLSLTCAISGDSVSSNNAAWNWIRQSPARGLEWLGRTYYRSKWYNDYVVSVKSRITINPDTSKNQFSLQLNSVTPEDTAVYYCVRATAFDYWGQGTLVTVSS VL: AIVLTQTPLSSPVTLGQPASISCRSSQSLVHRDGNTYLSWLQQRPGQPPRLLIYKISNRFSGVPDRFSGSGAGTDFTLKISRVEPDDVGVYYCMHTTQLPWTFGQGTKVEIK | 20.1% |
| SC-EGFRvIII-XG1-250 (antibody, V domains shown, also called SC250; sc250) VH: EGQLLESGGGWVQPGESLRLSCAASGFTFSSYAMSWVRQAPGKGLEWVSAISGSGGSTNYADSVKGRFTISRDNSKNTLYLQVNSLRVEDTAVYYCAGSSGWSEYWGQGTLVTVSS VL: DIQMTQSPSSLSASVGDSVTITCRTSQGIRKNLGWYQQKPGKAPKRLIYAASSLQSGVPSRFSGSGSGTEFTLTISRLQPEDFATYYCLQHHSYPLTFGGGTRVEIR | 16.7% |

# input for lookup
Req: Kindly indicate its recorded % internalization. Item: AB-EGFRvIII-XG1-095 (antibody, V domains shown, also called SC95; sc95) VH: QVQLQESGPFLVKPSQTLSLTCTVSGGSISSGGYYWSWIRQHPGKGLEWIGFIYYRGNTYYNPSLKSRVTISVDTSKNQFSLKLSSVTAADTAVYYCARDGYCSRTGCYGGWFDPWGQGTLVTVSP VL: DIVMTQTPLSSPVTLGQPASISCRSSQSLIHTDGNIYLSWLQQRPGQPPRLLIYKISNRFSGVPDRFSGSGAGTDFTLKISRVEAEDVGVYYCMQGTQFPITFGQGTRLEIK
Resp: 72.4%

Reference source: patent US20050059087A1
